- assayProcedure: TLR3 IRF3 reporter activation blockers – cell-based, poly I:C stimulus, luciferase, 10K MLSCN set, primary screen (AID 602277)
- assayContext: HEK293-TLR3 RL24 IRF3 luciferase reporter, at 10 µM, stronger effect = higher value
// No strictly below 10% in inhibition; Yes otherwise

* CCN(CC)S(=O)(=O)c1ccc2[nH]cc(C(=O)NCCC3=CCCCC3)c(=O)c2c1 | No
* Cc1ccc(-c2noc(C3CCCN(C(=O)c4ccccc4)C3)n2)o1 (stereo not given) | No
* O=C(CN1CCCN(S(=O)(=O)c2ccc(Br)cc2)CC1)Nc1ccc2c(c1)OCO2 | Yes
* COc1ccc(NC(=O)Nc2ccc(C)cc2OC(F)F)cc1OC | No
* Cn1c(=O)[nH]c(=O)c2c1nc(NC1CCCCC1)n2CC(=O)NC1CCCCC1 | Yes
* COC(=O)CN1C(=O)C(O)(CC(=O)c2ccc(Cl)cc2)c2ccccc21 (stereo not given) | Yes
* O=C1C2CC=C(Cl)CC2C(=O)N1c1ncn[nH]1 (stereo not given) | Yes
* COCCn1c(SCC(=O)N(C(C)C)C(C)C)nnc1-c1cc2ccccc2cc1O | Yes
* CC1=C(C(=O)NCc2ccccc2)C(c2ccccc2OCC(N)=O)NC(=O)N1 (stereo not given) | Yes
